src = patent US9610264B2

test_target: binding of HIV associated glycoprotein gp120 and the integrin α4β7 (Homo sapiens (Human), UniProt P13612+P26010)
Sequence (P13612 whole entry, looked up): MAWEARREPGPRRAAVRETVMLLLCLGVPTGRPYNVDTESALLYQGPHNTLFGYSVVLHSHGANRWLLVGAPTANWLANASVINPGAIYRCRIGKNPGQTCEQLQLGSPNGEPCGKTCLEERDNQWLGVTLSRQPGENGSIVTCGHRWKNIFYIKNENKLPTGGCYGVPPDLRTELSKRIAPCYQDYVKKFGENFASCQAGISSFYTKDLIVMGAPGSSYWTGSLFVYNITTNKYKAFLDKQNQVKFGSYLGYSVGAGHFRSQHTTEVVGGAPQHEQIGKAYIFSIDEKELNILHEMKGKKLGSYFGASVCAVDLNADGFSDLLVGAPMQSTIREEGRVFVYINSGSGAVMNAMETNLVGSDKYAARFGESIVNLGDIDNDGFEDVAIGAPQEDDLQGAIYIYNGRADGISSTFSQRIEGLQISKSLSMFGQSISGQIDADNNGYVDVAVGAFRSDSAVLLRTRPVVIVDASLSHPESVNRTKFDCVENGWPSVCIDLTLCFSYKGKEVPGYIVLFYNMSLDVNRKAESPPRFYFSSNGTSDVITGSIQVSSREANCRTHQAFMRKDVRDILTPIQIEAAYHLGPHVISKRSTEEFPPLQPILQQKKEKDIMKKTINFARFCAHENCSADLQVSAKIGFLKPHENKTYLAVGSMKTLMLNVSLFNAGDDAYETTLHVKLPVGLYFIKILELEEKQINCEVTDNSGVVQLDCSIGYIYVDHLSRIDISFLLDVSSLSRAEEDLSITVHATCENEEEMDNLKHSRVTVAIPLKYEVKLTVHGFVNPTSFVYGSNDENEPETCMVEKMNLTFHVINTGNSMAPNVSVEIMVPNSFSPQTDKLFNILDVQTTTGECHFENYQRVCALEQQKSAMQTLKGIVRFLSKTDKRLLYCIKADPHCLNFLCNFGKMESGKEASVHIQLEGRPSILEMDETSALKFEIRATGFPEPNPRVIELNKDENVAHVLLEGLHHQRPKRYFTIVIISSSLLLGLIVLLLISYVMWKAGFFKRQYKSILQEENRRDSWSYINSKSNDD
Sequence (P26010 whole entry, looked up): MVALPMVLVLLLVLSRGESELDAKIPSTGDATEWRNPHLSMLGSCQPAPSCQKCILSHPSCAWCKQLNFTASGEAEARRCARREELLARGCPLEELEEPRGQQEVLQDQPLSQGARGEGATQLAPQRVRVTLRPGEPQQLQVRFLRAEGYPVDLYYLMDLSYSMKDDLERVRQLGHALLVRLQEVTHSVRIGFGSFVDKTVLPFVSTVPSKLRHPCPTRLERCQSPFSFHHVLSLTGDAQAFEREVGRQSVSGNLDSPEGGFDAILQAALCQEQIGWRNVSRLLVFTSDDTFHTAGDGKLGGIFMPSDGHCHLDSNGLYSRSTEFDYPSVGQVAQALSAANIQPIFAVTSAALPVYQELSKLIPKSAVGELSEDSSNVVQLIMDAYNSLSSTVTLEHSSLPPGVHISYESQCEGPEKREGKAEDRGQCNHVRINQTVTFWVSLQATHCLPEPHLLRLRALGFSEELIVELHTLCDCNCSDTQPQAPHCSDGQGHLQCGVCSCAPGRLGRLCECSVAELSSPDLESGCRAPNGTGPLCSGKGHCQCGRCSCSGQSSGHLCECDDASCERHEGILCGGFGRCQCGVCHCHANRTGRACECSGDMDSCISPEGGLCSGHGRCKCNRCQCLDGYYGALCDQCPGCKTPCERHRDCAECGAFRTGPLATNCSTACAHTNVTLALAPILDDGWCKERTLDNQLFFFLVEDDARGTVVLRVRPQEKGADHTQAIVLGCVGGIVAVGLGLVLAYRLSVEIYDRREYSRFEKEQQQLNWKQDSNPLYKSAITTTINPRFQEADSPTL
protocol_text: ELISA assay of gp120 binding to integrin α4β7
conditions: inhibition of gp120/α4β7 binding, triplicate with two anti-gp120 antibodies, read-out: IC50 a4b7
value_kind: IC50 (nM)

O=C(CN1CCN(Cc2ccsc2)CC1)Nc1ccccc1C(=O)NCc1ccccc1	0.27
O=C(CCc1ccccc1)Nc1ccccc1C(=O)NCc1ccccc1	0.33
O=C(Cc1ccc(F)cc1)Nc1ccccc1C(=O)NCc1ccccc1	0.89
CC(NC(=O)c1ccccc1NC(=O)CN1C(=O)C(=O)N(Cc2ccccc2)C1=O)c1ccccc1 (stereo not drawn)	0.64
O=C(Nc1ccccc1C(=O)NCc1ccccc1)c1cccc([N+](=O)[O-])c1	1.53
CC(NC(=O)c1ccccc1NC(=O)CN1CCc2ccccc21)c1ccccc1 (stereo not drawn)	2.45
CC1(c2ccc(F)cc2)NC(=O)N(CC(=O)Nc2ccccc2C(=O)NCc2ccccc2)C1=O (stereo not drawn)	0.46
Cc1ccc(CNC(=O)c2ccccc2NC(=O)CN2CCc3ccccc32)cc1	19.2
CC1CCCCN1CC(=O)Nc1ccccc1C(=O)NCc1ccccc1 (stereo not drawn)	1.23
CCC(=O)Nc1cccc(C(=O)Nc2ccccc2C(=O)NCc2ccc(C)cc2)c1	2.19
Cc1ccc(CNC(=O)c2ccccc2NC(=O)CN2CCN(C(C)C(=O)NC3CC3)CC2)cc1 (stereo not drawn)	0.61
CC(NC(=O)c1ccccc1NC(=O)CN1C(=O)NC(Cc2ccccc2)C1=O)c1ccccc1 (stereo not drawn)	2.8
